// data source = PubChem BioAssay AID1159580

- experiment-description: chemical genetic growth profiling, strain panel (AID 1159580);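 also: tested at 20 µM; growth read once vehicle control cultures reached saturation at 30 °C; 1 = growth at the plate median or of vehicle wells; lower values mean less growth of the strain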
- experimental-setup: S. cerevisiae deletion strains, growth OD, locus YML070W, strain DAK1, hits give low values
Among all 5,500 compounds or so, about 2,000 (36%) were called active. Not shown: some 18% with an inconclusive outcome. The list shows a part of the results.
readout: normalized growth
Answer with a bare number; do not write a unit.

FC(F)(F)c1ccnc(N2CCCN(C(=S)Nc3ccc(Cl)cc3Cl)CC2)n1 | 0.972
CC1(C)OC(=O)C(=Cc2cccn2-c2ccc(OC(F)(F)F)cc2)C(=O)O1 | 0.909
O=C(NNc1ccc(I)cc1)c1cc(Cl)cc(Cl)c1 | 0.849

Param item = "CCCCCCCCCCCC(=O)NOC(=O)c1c(-c2c(Cl)cccc2Cl)noc1C" ; retrieve measured normalized growth.
0.692

What do you get for "CCc1ccn2cc(Nc3ccccc3Cl)nc2c1" ?
0.917
